# credit: patent US10975068B2

target-system: UniProt P51449
assay-protocol: RORγt (full-length human) reporter assay, Conditions B or C
Type: cell-based
setup-conditions: at 3 μM compound concentration; read-out: RORγt (FL) Reporter Assay B or C, % inhibition
experimental-endpoint: inhibition at 3 µM (%)
Answers are plain numbers, in %.

Observe how each entry below is paired with its result.
CNC(=O)c1nc(C(=O)N2CCC[C@@H]2C)c(-c2cnc(NC(C)(C)C)cc2C(F)(F)F)s1 = 102
C[C@H]1CCCN1C(=O)c1nc(C(=O)N[C@@H]2CC[C@H]2O)sc1-c1cnc(NC(C)(C)C)cc1C(F)F (relative stereo) = 108
C[C@H](NC(=O)c1nc(C(=O)N2C3CCC2CC3)c(-c2cnc(N[C@@H](C3CC3)C(F)(F)F)cc2C(F)F)s1)C(C)(C)O = 106
C[C@H](NC(=O)c1nc(C(=O)N2C3CCC2CC3)c(-c2cnc(N[C@@H](C)C(F)(F)F)cc2C(F)F)s1)C(C)(C)O = 108
C[C@H](NC(=O)c1nc(C(=O)N2CC(F)(F)C[C@@H]2C)c(-c2cnc(NC(C)(C)C)cc2C(F)F)s1)C(C)(C)O = 98

Provide each entry's inhibition at 3 µM from the list below.
1. O=C(N[C@@H]1CCC[C@H]1O)c1nc(C(=O)N2C3CCC2CC3)c(-c2cnc(N[C@@H](C3CC3)C(F)(F)F)cc2C(F)F)s1
2. C[C@H](Nc1cc(C(F)F)c(-c2sc(C(=O)N[C@@H]3CC[C@@H]3O)nc2C(=O)N2CCC[C@@H]2C)cn1)C(F)(F)F (relative stereo)
3. C[C@H]1CCCN1C(=O)c1nc(C(=O)N[C@@H]2CCC[C@H]2O)sc1-c1cnc(NC(C)(C)C)cc1C(F)F
4. C[C@H](CO)NC(=O)c1nc(C(=O)N2CCC[C@@H]2C)c(-c2cnc(NC(C)(C)C)cc2C(F)(F)F)s1

RESULT:
[102, 106, 118, 112]

====

target-system: UniProtKB P51449
assay-protocol: RORγt (full-length human) reporter assay, Conditions B or C
Type: cell-based
setup-conditions: Conditions B or C; read-out: RORγt (FL) Reporter Assay B or C, IC50
For each record, write down the corresponding pIC50.
Give bare numbers, as −log10 of the molar value.

CCC(C)(C)Nc1cc(C(F)F)c(-c2sc(C(=O)NCC(C)(C)O)nc2C(=O)N2C3CCC2CC3)cn1 [Example 93] = 8.00
CC[C@H](Nc1cc(C(F)F)c(-c2sc(C(=O)NCC(C)(C)O)nc2C(=O)N2C3CCC2CC3)cn1)C1CC1 (stereo in doubt) [Example 163] = 7.92

Provide each entry's pIC50 from the list below.
1. C[C@H]1CCCCN1C(=O)c1nc(C(=O)NCC(C)(C)O)sc1-c1cnc(NC2CCCC2)cc1C(F)F [Example 41]
2. C[C@H]1CC(F)(F)CN1C(=O)c1nc(C(=O)NCC(C)(C)O)sc1-c1cnc(NC2(C(F)(F)F)CCC2)cc1C(F)(F)F [Example 100]
3. C[C@H]1CCCN1C(=O)c1nc(C(=O)NCC(C)(C)O)sc1-c1cnc(NC2(C(F)(F)F)CCC2)cc1C(F)F [Example 123]
4. CC[C@H](Nc1cc(C(F)F)c(-c2sc(C(=O)NC3CCS(=O)(=O)CC3)nc2C(=O)N2C3CCC2CC3)cn1)C(F)(F)F [Example 154]

RESULT:
1: 8.12; 2: 7.85; 3: 7.89; 4: 7.01

====

target-system: human RORγt ligand binding domain (RORγt LBD) (Homo sapiens (Human), UniProt P51449)
Sequence (P51449 other isoform, or with tags, fused parts or gaps): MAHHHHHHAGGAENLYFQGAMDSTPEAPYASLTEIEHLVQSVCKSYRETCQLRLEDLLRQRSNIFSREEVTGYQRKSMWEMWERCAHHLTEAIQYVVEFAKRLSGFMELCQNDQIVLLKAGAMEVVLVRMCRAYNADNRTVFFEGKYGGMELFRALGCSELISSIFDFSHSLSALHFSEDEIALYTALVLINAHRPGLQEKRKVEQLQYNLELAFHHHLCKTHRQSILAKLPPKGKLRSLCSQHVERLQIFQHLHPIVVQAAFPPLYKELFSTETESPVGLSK
assay-protocol: RORγt ThermoFluor® assay (thermal shift binding)
setup-conditions: read-out: ThermoFluor® Assay, Kd
Protocol: […] Bar-coded assay plates are robotically loaded onto a thermostatically controlled PCR-type thermal block and then heated at a typical ramp-rate of 1° C./min for all experiments. Fluorescence was measured by continuous illumination with UV light (Hamamatsu LC6) supplied via fiber optic and filtered through a band-pass filter (380-400 nm; >6 OD cutoff). […] Images were collected at each temperature, and the sum of the pixel intensity in a given area of the assay plate was recorded versus temperature. […]
Threshold 2 nM: Kd strictly smaller gives yes, otherwise no.

The examples below pair each entry with its known result.
C[C@H]1CCCN1C(=O)c1nc(C(=O)NC2(CO)CCC2)sc1-c1cnc(NC(C)(C)C)cc1C(F)(F)F = yes
C[C@H]1CCCN1C(=O)c1nc(C(=O)N[C@H]2CC[C@@H]2O)sc1-c1cnc(NC(C)(C)C)cc1C(F)F (relative stereo) = no

QUERY: Criterion: Kd strictly below 2 nM. Is it met by `C[C@H]1CCCN1C(=O)c1nc(C(=O)NCC(C)(C)O)sc1-c1cnc(NC2(C(F)(F)F)CCC2)cc1C(F)(F)F` ?
RESULT: yes

QUERY: Criterion: Kd strictly below 2 nM. Is it met by `C[C@H]1CCCN1C(=O)c1nc(C(=O)N[C@H]2C[C@@](C)(O)C2)sc1-c1cnc(NC(C)(C)C)cc1C(F)(F)F` ?
RESULT: no

QUERY: Criterion: Kd strictly below 2 nM. Is it met by `C[C@H]1CCCN1C(=O)c1nc(C(=O)NCC2(O)COC2)sc1-c1cnc(NC2CCCC2)cc1C(F)F` ?
RESULT: no

QUERY: Criterion: Kd strictly below 2 nM. Is it met by `CCC(C)(C)Nc1cc(C(F)(F)F)c(-c2sc(C(=O)NCC(C)(C)O)nc2C(=O)N2CCCC[C@@H]2C)cn1` ?
RESULT: yes

QUERY: Criterion: Kd strictly below 2 nM. Is it met by `CCC(C)(C)Nc1cc(C(F)F)c(-c2sc(C(=O)NCC(C)(C)O)nc2C(=O)N2CC(F)(F)C[C@@H]2C)cn1` ?
RESULT: yes

QUERY: Criterion: Kd strictly below 2 nM. Is it met by C[C@H](Nc1cc(C(F)F)c(-c2sc(C(=O)NC3CCC3O)nc2C(=O)N2CCC[C@@H]2C)cn1)C(F)(F)F (stereo partly shown) [Example 386] ?
RESULT: no

QUERY: Criterion: Kd strictly below 2 nM. Is it met by `CC[C@H](Nc1cc(C(F)F)c(-c2sc(C(=O)N[C@@H]3CC[C@@H](O)C3)nc2C(=O)N2CCC[C@@H]2C)cn1)C(F)(F)F` ?
RESULT: yes

QUERY: Criterion: Kd strictly below 2 nM. Is it met by `CC[C@H](Nc1cc(C(F)(F)F)c(-c2sc(C(=O)NCC(C)(C)O)nc2C(=O)N2CCC[C@@H]2C)cn1)C(F)(F)F` ?
RESULT: yes

====

target-system: full-length human RORγt (Homo sapiens (Human), UniProt P51449)
Sequence (P51449 other isoform, or with tags, fused parts or gaps): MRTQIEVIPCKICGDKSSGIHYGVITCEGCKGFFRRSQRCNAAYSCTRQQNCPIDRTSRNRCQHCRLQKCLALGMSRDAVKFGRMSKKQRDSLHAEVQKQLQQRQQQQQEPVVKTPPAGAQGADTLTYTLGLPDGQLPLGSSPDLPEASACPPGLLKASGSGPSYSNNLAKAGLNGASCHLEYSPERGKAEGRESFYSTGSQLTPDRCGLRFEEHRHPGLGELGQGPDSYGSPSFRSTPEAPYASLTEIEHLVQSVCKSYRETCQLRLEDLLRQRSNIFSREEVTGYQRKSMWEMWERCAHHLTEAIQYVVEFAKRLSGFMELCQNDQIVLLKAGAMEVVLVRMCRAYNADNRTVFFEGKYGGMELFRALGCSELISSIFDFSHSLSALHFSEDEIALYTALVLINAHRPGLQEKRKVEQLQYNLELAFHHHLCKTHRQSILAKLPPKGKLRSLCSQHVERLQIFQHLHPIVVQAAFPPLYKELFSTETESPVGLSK
assay-protocol: RORγt (full-length human) reporter assay, Conditions B or C
Format: cell-based
setup-conditions: Conditions B or C; marked *: footnote not given
experimental-endpoint: RORγt (FL) Reporter Assay B or C, % inhibition (value marked *)

Provide each entry's RORγt (FL) Reporter Assay B or C, % inhibition (value marked *) from the list below.
1. CC[C@H](Nc1cc(C(F)F)c(-c2sc(C(=O)N[C@@H](C)C(C)(C)O)nc2C(=O)N2C3CCC2CC3)cn1)C(F)(F)F
2. C[C@H](NC(=O)c1nc(C(=O)N2CCC[C@@H]2C)c(-c2cnc(N[C@@H](C)C(F)(F)F)cc2C(F)F)s1)C(C)(C)O

RESULT:
102* %
94* %

Provide each entry's RORγt (FL) Reporter Assay B or C, % inhibition (value marked *) from the list below.
1. CC[C@H](Nc1cc(C(F)F)c(-c2sc(C(=O)N[C@@H]3C[C@H]3O)nc2C(=O)N2CCC[C@@H]2C)cn1)C(F)(F)F (relative stereo)
2. C[C@H]1CCCN1C(=O)c1nc(C(=O)NCC(C)(C)O)sc1-c1cnc(NC(C2CC2)C2CC2)cc1C(F)(F)F
3. C[C@H]1CCCN1C(=O)c1nc(C(=O)N[C@H]2C[C@H](O)C2)sc1-c1cnc(NC2CCCC2)cc1C(F)F
4. C[C@H]1CCCN1C(=O)c1nc(C(=O)NCC(C)(C)O)sc1-c1cnc(NC(C)(C)C2CC2)cc1C(F)(F)F
5. CC(C)(O)CNC(=O)c1nc(C(=O)N2C3CCC2CC3)c(-c2cnc(NC3CCCC3)cc2C(F)(F)F)s1
6. CC[C@H](Nc1cc(C(F)F)c(-c2sc(C(=O)N[C@@H]3COC[C@@H]3O)nc2C(=O)N2CCC[C@@H]2C)cn1)C(F)(F)F (single isomer, unassigned)
7. CC[C@H](Nc1cc(C(F)F)c(-c2sc(C(=O)N[C@@H](C)C(C)(C)O)nc2C(=O)N2CCCC[C@@H]2C)cn1)C(F)(F)F

RESULT:
1: 103* %; 2: 107* %; 3: 101* %; 4: 106* %; 5: 109* %; 6: 104* %; 7: 100* %

Provide each entry's RORγt (FL) Reporter Assay B or C, % inhibition (value marked *) from the list below.
1. C[C@H](Nc1cc(C(F)(F)F)c(-c2sc(C(=O)NCC(C)(C)O)nc2C(=O)N2C3CCC2CC3)cn1)C1CCC1 (stereo in doubt)
2. C[C@H]1CC(F)(F)CN1C(=O)c1nc(C(=O)NCC(C)(C)O)sc1-c1cnc(NCC(C)(C)C)cc1C(F)F
3. CC[C@H](Nc1cc(C(F)F)c(-c2sc(C(=O)N[C@@H]3COC[C@H]3O)nc2C(=O)N2C3CCC2CC3)cn1)C(F)(F)F
4. CC[C@H](Nc1cc(C(F)F)c(-c2sc(C(=O)N[C@H]3C[C@H](O)C3)nc2C(=O)N2C3CCC2CC3)cn1)C(F)(F)F

RESULT:
1. 108* %
2. 115* %
3. 101* %
4. 113* %
